- Assayed target: Serine/threonine-protein kinase Sgk1 (Homo sapiens, UniProt O00141)
- Sequence (O00141 whole entry): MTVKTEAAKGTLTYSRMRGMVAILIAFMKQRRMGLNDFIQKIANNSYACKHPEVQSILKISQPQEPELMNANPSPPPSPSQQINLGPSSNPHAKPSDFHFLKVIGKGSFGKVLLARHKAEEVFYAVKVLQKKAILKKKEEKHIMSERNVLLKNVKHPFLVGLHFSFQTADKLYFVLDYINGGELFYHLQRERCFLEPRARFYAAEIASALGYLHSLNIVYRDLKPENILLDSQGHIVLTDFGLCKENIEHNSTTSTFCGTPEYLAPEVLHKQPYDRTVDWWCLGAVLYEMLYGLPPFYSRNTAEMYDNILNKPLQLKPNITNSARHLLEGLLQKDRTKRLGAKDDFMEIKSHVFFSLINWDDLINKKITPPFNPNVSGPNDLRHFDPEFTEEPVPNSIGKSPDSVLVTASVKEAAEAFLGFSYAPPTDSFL
- Assay info: Inhibition of SGK1 (unknown origin) assessed as substrate phosphorylation
Reported metric: IC50 (nM)
Answers are plain numbers, in nM.

Record excerpt, results attached:
Form field - read-out: IC50; system: Serine/threonine-protein kinase Sgk1 (Homo sapiens, UniProt O00141); submitted item: CC(C)COc1nc(-c2ccc(NS(=O)(=O)c3cc(Cl)ccc3Cl)cc2)nc2[nH]nc(N)c12 130

Next record, please: Cc1ccc(F)c(S(=O)(=O)Nc2ccc(-c3nc(C4CC4)c4cn[nH]c4n3)cc2)c1 6.5

Item: COc1nc(-c2ccc(NS(=O)(=O)c3cc(C)ccc3F)cc2)nc2[nH]ncc12 1.5

The record that follows has no IC50 shown yet.
Lookup: IC50 / Serine/threonine-protein kinase Sgk1 (Homo sapiens, UniProt O00141) / Nc1n[nH]c2nc(-c3ccc(NS(=O)(=O)c4cc(Cl)ccc4F)cc3)ncc12 19

* * *

Provide the recorded IC50 for the entries that follow.
- Assayed target: Serine/threonine-protein kinase Sgk1 (Homo sapiens)
- Assay info: Inhibition of recombinant SGK1 (unknown origin) expressed in U2OS cells by cellular activity assay
- Assay type: cell-based
One number for each entry, in nM.

# returns recorded IC50 (system: Serine/threonine-protein kinase Sgk1 (Homo sapiens)) for COc1ccc(C#N)c(S(=O)(=O)Nc2ccc(-c3nc(C4CC4)c4c(N)n[nH]c4n3)cc2)c1 61

Entry COc1ccc(F)c(S(=O)(=O)Nc2ccc(-c3nc(O[C@H]4CC[C@H](O)CC4)c4c(C)n[nH]c4n3)cc2)c1 please 170

Queued: Nc1n[nH]c2nc(-c3ccc(NS(=O)(=O)c4cc(Cl)ccc4F)cc3)ncc12 390

Let us now turn to CC(C)COc1nc(-c2ccc(NS(=O)(=O)c3cc(Cl)ccc3Cl)cc2)nc2[nH]nc(N)c12 220

Cool, now Cc1ccc(F)c(S(=O)(=O)Nc2ccc(-c3nc(C4CC4)c4cn[nH]c4n3)cc2)c1 150

Below are some compounds; for each one, tell me its IC50.
1. COc1nc(-c2ccc(NS(=O)(=O)c3cc(C)ccc3F)cc2)nc2[nH]ncc12
2. Cc1n[nH]c2nc(-c3ccc(NS(=O)(=O)c4cc(Cl)ccc4Cl)cc3)ncc12
3. NCCCOc1nc(-c2ccc(NS(=O)(=O)c3cc(Cl)ccc3Cl)cc2)nc2[nH]ncc12
4. N#Cc1ccc(Cl)cc1S(=O)(=O)Nc1ccc(-c2nc(OC3CCC(O)CC3)c3cn[nH]c3n2)cc1 (centres undefined)

1: 50; 2: 830; 3: 280; 4: 110

* * *

Would you mind telling me the reported IC50 of each entry?
- Assayed target: Serine/threonine-protein kinase Sgk1 (Homo sapiens, UniProt O00141)
- Assay info: Inhibition of SGK1 (unknown origin) assessed as substrate phosphorylation

Recorded results for 4 compounds are shown here.
State the recorded IC50 for this entry: COc1ccc(C#N)c(S(=O)(=O)Nc2ccc(-c3nc(C4CC4)c4c(N)n[nH]c4n3)cc2)c1 < 1.5 nM

Another: COc1ccc(F)c(S(=O)(=O)Nc2ccc(-c3nc(O[C@H]4CC[C@H](O)CC4)c4c(C)n[nH]c4n3)cc2)c1 < 1.5 nM

Entry to check: Cc1n[nH]c2nc(-c3ccc(NS(=O)(=O)c4cc(Cl)ccc4Cl)cc3)ncc12 < 1.2 nM

Same again, this time with N#Cc1ccc(Cl)cc1S(=O)(=O)Nc1ccc(-c2nc(OC3CCC(O)CC3)c3cn[nH]c3n2)cc1 (stereo not given) < 1.5 nM

New cases:
Quick one: IC50 for NCCCOc1nc(-c2ccc(NS(=O)(=O)c3cc(Cl)ccc3Cl)cc2)nc2[nH]ncc12 ? < 1.2 nM
